Items are presented alongside their recorded Kd.
Molecular target: T1, recombinant human activated Factor VII (FVIIa) (human, UniProt P08709 61-212; P08709 213-466, ten glutamate residues of the Gla domain may be gamma-carboxylated)
T1 construct: chains tethered by a disulfide bond; also called Factor VIIa; rFVIIa
T1 sequence 1: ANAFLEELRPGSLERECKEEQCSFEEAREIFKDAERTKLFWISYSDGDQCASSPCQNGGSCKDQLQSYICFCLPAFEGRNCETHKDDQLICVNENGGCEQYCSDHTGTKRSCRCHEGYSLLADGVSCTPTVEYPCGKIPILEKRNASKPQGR
T1 sequence 2: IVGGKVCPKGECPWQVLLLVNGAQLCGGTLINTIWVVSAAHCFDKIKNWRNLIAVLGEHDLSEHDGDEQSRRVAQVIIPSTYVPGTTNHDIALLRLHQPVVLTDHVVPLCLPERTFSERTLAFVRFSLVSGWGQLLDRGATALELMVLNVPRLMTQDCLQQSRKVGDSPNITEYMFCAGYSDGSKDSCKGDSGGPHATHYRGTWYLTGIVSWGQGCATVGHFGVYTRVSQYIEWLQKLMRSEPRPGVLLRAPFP
Test: BLI (Fortebio)
Reply numerically in nM, unit not repeated.

-- ask What value of Kd has been reported for the following binder? VH SEQ ID NO 522 / VL SEQ ID NO 478 (antibody, IgG4, V domains shown, humanized 11F2; IgG4 S228P/kappa) VH: QVQLQESGPGLVEPSQTLSLTCTVSGYSISSDSAWSWIRQPPGKGLEWIGYIQYSGSTNYNPSLKSRVTISRDTSKNQFSLKLSSVTAADTAVYYCARSVNYYGNSFAVGPWGQGTLVTVSS VL: EIVLTQSPATLSLSPGERATLSCRASQGVSDYLHWYQQKPGQAPRLLIKYASQPATGIPARFSGSGSGTDFTLTISSLEPEDFAVYYCQQGHSFPLTFGQGTKLEIK
-- reply 1.6

Further cases:
-- ask I'd like to know its Kd. The binder in question is VH SEQ ID NO 618 / VL SEQ ID NO 406 (antibody, IgG4, V domains shown, humanized 11F2; IgG4 S228P/kappa) VH: QVQLQESGPGLVKPSQTLSLTCTVSGYSISSDSAWSWIRQFPGKGLEWIGYIQYSGSTNYNPSLKSRVTISRDTSKNQFSLKLSSVTAADTAVYYCARSVNYYGNSFAVGPWGQGTLVTVSS VL: EIVLTQSPATLSLSPGERATLSCRASQGVSDYLAWYQQKPGQAPRLLIKYASQPATGIPARFSGSGSGTDFTLTISSLEPEDFAVYYCQNGHSFPLTFGAGTKLEIK
-- reply 24

-- ask # query: Kd of entry VH SEQ ID NO 642 / VL SEQ ID NO 438 (antibody, IgG4, V domains shown, humanized 11F2; IgG4 S228P/kappa) VH: QVQLQESGPGLVKPSQTLSLTCTVSGYSISSDSAWSWIRQPPGKGLEWIGYIYYSGSTNYNPSLKSRVTISVDTSKNQFSLKLSSVTAADTAVYYCARSVNYYGNSFAVGYWGQGTSVTVSS VL: EIVLTQSPATLSLSPGERATLSCRASQGVSDYLAWYQQKPGQAPRLLIKYASQPATGIPARFSGSGSGTDFTLTISSLEPEDVAVYYCQNGHSFPLTFGQGTKLEIK
-- reply 33
